experiment-description: folding stability dG unfold from chymotrypsin proteolysis; higher = more stable
Listed here are sequences together with their documented folding stability dG unfold.

{"sequence-text": "SAGGSAEPPEVTVEVLSVEPTPDGYLVVERVVTTPDGVLVYRTVFRPPDGKPVGTDWALFPNPDALSAGGSA [r15_716_TrMRF]", "folding stability dG unfold": "3.53 kcal/mol"}
{"sequence-text": "SKKVTLPIRFPWNGWEIEITAEELAEKKGLDPEDLTIHVVMPGPGWMYTIKIDPDGIEIEPIGPVPPNDMSA [r9_819_TrROS]", "folding stability dG unfold": "2.95 kcal/mol"}
{"sequence-text": "SAGGSAGGSAGGKKTINVEIVKIEVTKNKKTNEYTVKIYIKDTGKTITLTVKPGDIIKISAGGSAGGSAGGS [r10_819_TrROS_Hall]", "folding stability dG unfold": "3.28 kcal/mol"}
{"sequence-text": "SAGGSAGGSPYKEVPVPVRIHSPDGETHEFPGTIWKSPDDGMLEIRFPGNGKKHKIPLNDIQISAGGSAGGS [r12_772_TrROS]", "folding stability dG unfold": "-0.606 kcal/mol"}
{"sequence-text": "SMYVFSTGSKPSSEQLLEKLEKVPNLPKELIKKNTIISDTESSPEIVIPKEVYDKIKKENPEAVKVIESGSA [r9_160_JUSTAS]", "folding stability dG unfold": "-0.991 kcal/mol"}
{"sequence-text": "SAGGSAGGEVKTIEIEIEITDEDGRKYRIKMEAEVLPNGEIIIRMEIEDEETNETYEMTIVLKPSAGGSAGG [r6_726_TrROS_Hall]", "folding stability dG unfold": "4.55 kcal/mol"}
{"sequence-text": "SAGGSAGGSAGGLLRAPDGSTAIVVRDASPETVARALHELNPNAVIVVAPIPNVAVIYLDSAGGSAGGSAGG [r7_370_TrMRF]", "folding stability dG unfold": "0.178 kcal/mol"}
